Hello, the source for this data is PubChem BioAssay (NCI), in case you need it.

system: NCI/ADR-RES ovarian; assay: NCI-60 one-dose screen, 48 h; details: 10 µM unless noted
Compounds without any hit were thinned out: in the full panel of roughly 83,000, 20% have a hit. Activity calls are given as the source filed them. The calls were made as follows: active = growth percent below 10; inactive = the rest.
Outcomes: 1.0 (active), 0.0 (inactive)

[
  {
    "COMPOUND": "COc1ccc2cc(C(C)C(=O)Nc3ccc(-c4n[nH]c(=S)n4C4CCCCC4)cc3)ccc2c1 (centres undefined)",
    "TARGET SYSTEM": "NCI/ADR-RES ovarian",
    "LABEL VALUE": 0.0
  },
  {
    "COMPOUND": "COc1ccc(-n2c(N)c(-c3nc4ccccc4[nH]3)cc(C#N)c2=O)cc1",
    "TARGET SYSTEM": "NCI/ADR-RES ovarian",
    "LABEL VALUE": 0.0
  },
  {
    "COMPOUND": "COc1nc2ccc(C)cc2cc1-c1nc2c(cnn2-c2ccccc2)c(=O)[nH]1",
    "TARGET SYSTEM": "NCI/ADR-RES ovarian",
    "LABEL VALUE": 0.0
  },
  {
    "COMPOUND": "CCCCCCn1c(-c2ccc(C(=O)O/N=C(\\N)c3ccc(OC)cc3)cc2)nc(-c2ccccc2)c1-c1ccccc1",
    "TARGET SYSTEM": "NCI/ADR-RES ovarian",
    "LABEL VALUE": 1.0
  },
  {
    "COMPOUND": "COc1ccc(-c2c(C(=O)NS(C)(=O)=O)n(Cc3cccc(C(F)(F)F)c3)c3ccccc23)cc1",
    "TARGET SYSTEM": "NCI/ADR-RES ovarian",
    "LABEL VALUE": 0.0
  },
  {
    "COMPOUND": "C/C(=C(/c1ccccc1)c1ccc(N2C(=O)c3cccc4c(N5CCN(C)CC5)ccc(c34)C2=O)cc1)c1ccccc1",
    "TARGET SYSTEM": "NCI/ADR-RES ovarian",
    "LABEL VALUE": 0.0
  },
  {
    "COMPOUND": "CCCCOc1nc2ccc(OC)cc2cc1-c1cc(-c2ccc(Cl)cc2)nc(-c2ccc(Cl)cc2)c1",
    "TARGET SYSTEM": "NCI/ADR-RES ovarian",
    "LABEL VALUE": 0.0
  },
  {
    "COMPOUND": "COC(=O)CCC/C=C\\C[C@H]1C=CC(=O)/C1=C/C[C@@H](O)CCc1cccc(C(F)(F)F)c1",
    "TARGET SYSTEM": "NCI/ADR-RES ovarian",
    "LABEL VALUE": 1.0
  },
  {
    "COMPOUND": "CNCCCNc1nc2ccccc2c2c(=O)c3cc(F)ccc3sc12",
    "TARGET SYSTEM": "NCI/ADR-RES ovarian",
    "LABEL VALUE": 0.0
  },
  {
    "COMPOUND": "CN1CCN(c2ccc(-c3ccc4ncc(C#N)c(Nc5ccc(F)c(Cl)c5)c4c3)cc2)CC1",
    "TARGET SYSTEM": "NCI/ADR-RES ovarian",
    "LABEL VALUE": 0.0
  },
  {
    "COMPOUND": "Cc1nc2cnc(N)c(C#Cc3cncc(C(=O)Nc4ccc(CN5CCN(C)CC5)c(C(F)(F)F)c4)c3)c2nc1C",
    "TARGET SYSTEM": "NCI/ADR-RES ovarian",
    "LABEL VALUE": 0.0
  },
  {
    "COMPOUND": "COc1ccc(-c2nc3sc(-c4ccc(Cl)cc4)cn3n2)cc1",
    "TARGET SYSTEM": "NCI/ADR-RES ovarian",
    "LABEL VALUE": 0.0
  },
  {
    "COMPOUND": "CCOC(=O)C1=C(N)Oc2c(sc3c(C)cccc23)C1c1ccc(OC)cc1 (centres undefined)",
    "TARGET SYSTEM": "NCI/ADR-RES ovarian",
    "LABEL VALUE": 0.0
  },
  {
    "COMPOUND": "CC/C=C\\C[C@@H]1C/C=C2/C(=O)C=C[C@H]2C/C=C\\CCCC(=O)O1",
    "TARGET SYSTEM": "NCI/ADR-RES ovarian",
    "LABEL VALUE": 0.0
  },
  {
    "COMPOUND": "O=C(Cc1ccc(F)c(Cl)c1)Nc1cc(C2(C(F)(F)F)CC2)nn1CC1CCCCC1",
    "TARGET SYSTEM": "NCI/ADR-RES ovarian",
    "LABEL VALUE": 1.0
  },
  {
    "COMPOUND": "Cc1nc2nc(SCC(=O)O)[nH]c2c(=O)[nH]1",
    "TARGET SYSTEM": "NCI/ADR-RES ovarian",
    "LABEL VALUE": 0.0
  },
  {
    "COMPOUND": "COc1ccc(/C=C2\\Oc3cc(OCCN4CCC(Cc5ccccc5)CC4)ccc3C2=O)cc1OC",
    "TARGET SYSTEM": "NCI/ADR-RES ovarian",
    "LABEL VALUE": 0.0
  },
  {
    "COMPOUND": "Cc1ccc2c(-c3cc(-c4ccccc4)nc(N)c3C#N)cc(=O)oc2c1",
    "TARGET SYSTEM": "NCI/ADR-RES ovarian",
    "LABEL VALUE": 0.0
  },
  {
    "COMPOUND": "NC[C@@H]1O[C@H](O[C@@H]2[C@@H](CO)OC(O[C@@H]3[C@@H](O)[C@H](N)C[C@H](N)[C@H]3OC3O[C@H](CN)[C@@H](O)[C@H](O)[C@H]3N)[C@@H]2O)[C@H](N)[C@@H](O)[C@@H]1O (some centres undefined)",
    "TARGET SYSTEM": "NCI/ADR-RES ovarian",
    "LABEL VALUE": 0.0
  }
]
